Data provenance is patent US5455267A.

Measured IC50 by item
# target entity: aldose reductase (Rattus norvegicus, UniProt P07943)
# Construct: The crystalline lenses were homogenized in 135 mM sodium-potassium-phosphate buffer (pH 7.0) and centrifuged; from tissue; host or cells: lens of 6 week-old Wistar rats (30,000 rpm supernatant of homogenate)
# method: Determination of Aldose Reductase Activity (In Vitro)
# Assay type: biochemical, rat (Wistar)
# conditions used: Table 4; aldose reductase; read-out: 50% Inhibition conc [IC50 (M)] Aldose reductase
attribute measured: IC50 (M)

molecule="COc1c(O)cc2oc(Sc3ccc(O)cc3)cc(=O)c2c1O [Compound (Formula B), reference compound]" numeric_readout=1.8e-07
molecule="CCOc1c(OC)c(OC(C)C)cc2oc(Sc3ccc(O)cc3)cc(=O)c12 [Example 18]" numeric_readout=1.8e-08

====

# target entity: aldose reductase (Rattus norvegicus)
# Construct: The crystalline lenses were homogenized in 135 mM sodium-potassium-phosphate buffer (pH 7.0) and centrifuged; from tissue; host or cells: lens of 6 week-old Wistar rats (30,000 rpm supernatant of homogenate)
# method: Determination of Aldose Reductase Activity (In Vitro)
# Format: biochemical, rat (Wistar)
# conditions used: Table 3; rat lens aldose reductase, 20 mM glucose, 30 min, 30° C, pH 7.0; read-out: 50% Inhibition Conc. [IC50 (M)]
Measured IC50 by item
attribute measured: IC50 (M)

molecule=COc1cc(O)c2c(=O)cc(Sc3ccc(O)cc3)oc2c1 attribute_measured=IC50 endpoint_unit=M numeric_readout=1e-07
molecule=COc1c(OC(C)=O)cc2oc(Sc3ccc(O)cc3)cc(=O)c2c1OC(C)=O attribute_measured=IC50 endpoint_unit=M numeric_readout=1.7e-07
molecule=CCC(CC)Oc1cc2oc(Sc3ccc(O)cc3)cc(=O)c2c(O)c1OC attribute_measured=IC50 endpoint_unit=M numeric_readout=1.1e-07
molecule="CCC(C)Oc1cc2oc(Sc3ccc(O)cc3)cc(=O)c2c(OC(C)CC)c1OC (stereo not drawn)" attribute_measured=IC50 endpoint_unit=M numeric_readout=3.8e-08
molecule=COc1c(OC(C)C)cc2oc(Sc3ccc(O)cc3)cc(=O)c2c1OC attribute_measured=IC50 endpoint_unit=M numeric_readout=3e-08
molecule="CCC(C)Oc1cc2oc(Sc3ccc(O)cc3)cc(=O)c2c(OC)c1OC (stereo not drawn)" attribute_measured=IC50 endpoint_unit=M numeric_readout=4.4e-08
molecule=CCCCOc1cc2oc(Sc3ccc(O)cc3)cc(=O)c2c(OCCCC)c1OC attribute_measured=IC50 endpoint_unit=M numeric_readout=1.9e-07
molecule=CCCOc1cc2oc(Sc3ccc(O)cc3)cc(=O)c2c(OCCC)c1OC attribute_measured=IC50 endpoint_unit=M numeric_readout=1.5e-07
molecule=CCC(CC)Oc1cc2oc(Sc3ccc(O)cc3)cc(=O)c2c(OC)c1OC attribute_measured=IC50 endpoint_unit=M numeric_readout=6e-08
molecule="COc1c(O)cc2oc(Oc3ccc(O)cc3)cc(=O)c2c1O [Capillarisin, reference compound]" attribute_measured=IC50 endpoint_unit=M numeric_readout=1.6e-06
molecule=COc1cc2oc(Sc3ccc(O)cc3)cc(=O)c2c(O)c1OC attribute_measured=IC50 endpoint_unit=M numeric_readout=1.1e-07
molecule=CCOc1c(OC)c(OCC=C(C)C)cc2oc(Sc3ccc(O)cc3)cc(=O)c12 attribute_measured=IC50 endpoint_unit=M numeric_readout=2.3e-07
molecule=COc1c(OC(C)=O)cc2oc(Sc3ccc(O)cc3)cc(=O)c2c1O attribute_measured=IC50 endpoint_unit=M numeric_readout=3e-07
molecule="CCC(C)Oc1cc2oc(Sc3ccc(O)cc3)cc(=O)c2c(OC(C)C)c1OC (stereo not drawn)" attribute_measured=IC50 endpoint_unit=M numeric_readout=3.8e-08
molecule=COc1cc2oc(Sc3ccc(O)cc3)cc(=O)c2c(OC)c1OC attribute_measured=IC50 endpoint_unit=M numeric_readout=1.1e-07
molecule=COc1cc(OC)c2c(=O)cc(Sc3ccc(O)cc3)oc2c1 attribute_measured=IC50 endpoint_unit=M numeric_readout=1e-07
molecule=CCOc1cc2oc(Sc3ccc(O)cc3)cc(=O)c2c(OCC)c1OC attribute_measured=IC50 endpoint_unit=M numeric_readout=4e-08
molecule=COc1c(OC(C)C)cc2oc(Sc3ccc(O)cc3)cc(=O)c2c1O attribute_measured=IC50 endpoint_unit=M numeric_readout=6.5e-08
